B1: OR4K15 (parent)
chain: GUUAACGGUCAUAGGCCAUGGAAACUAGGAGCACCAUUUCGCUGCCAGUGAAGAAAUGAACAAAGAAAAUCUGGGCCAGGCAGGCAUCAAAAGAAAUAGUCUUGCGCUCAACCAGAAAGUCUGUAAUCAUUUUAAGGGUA

Variants of: B1
Assay: self-cleavage, relative activity (ratio to wild type); higher = more cleavage; in vitro, sequencing; the parent is a self-cleaving ribozyme
Entries and their measured self-cleavage follow.
Write the value as a bare number.

Example results:
U12C A54G = 1.22
U49A A62U = 1.92
A66G U72C = 0.09
C25G U108C = 0.03

Return reported self-cleavage; argument: A55G G115A
0.14

Bench note: what self-cleavage did U9C A129C show?
0.68

Recorded values, source the RNAGym collection of RNA variant scans (doi:10.7554/elife.90254).
